t½ for assorted binders
Target: T1, hGITR.mFc (human)
T1 construct: soluble dimeric construct with mouse Fc; also called dimeric human GITR
T1 chain: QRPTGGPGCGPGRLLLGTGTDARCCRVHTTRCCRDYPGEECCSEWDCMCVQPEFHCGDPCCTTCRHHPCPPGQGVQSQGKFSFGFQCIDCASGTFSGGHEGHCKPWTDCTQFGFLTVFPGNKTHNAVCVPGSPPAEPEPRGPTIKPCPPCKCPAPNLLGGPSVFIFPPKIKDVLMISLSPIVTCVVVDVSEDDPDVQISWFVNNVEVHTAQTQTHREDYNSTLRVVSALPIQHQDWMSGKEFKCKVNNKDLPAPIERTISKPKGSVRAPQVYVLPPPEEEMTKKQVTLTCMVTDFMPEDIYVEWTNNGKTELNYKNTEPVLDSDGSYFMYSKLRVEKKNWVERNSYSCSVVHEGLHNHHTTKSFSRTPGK
Assay: SPR 37C, mAb capture
Write it as a number; the unit min goes unstated.

Binder	Val
H4H14469P (antibody, human IgG4, V domains shown, human IgG4 (H4H)) VH: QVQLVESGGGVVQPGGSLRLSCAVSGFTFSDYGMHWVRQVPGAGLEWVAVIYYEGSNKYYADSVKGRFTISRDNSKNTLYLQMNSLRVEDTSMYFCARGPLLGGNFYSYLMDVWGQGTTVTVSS VL: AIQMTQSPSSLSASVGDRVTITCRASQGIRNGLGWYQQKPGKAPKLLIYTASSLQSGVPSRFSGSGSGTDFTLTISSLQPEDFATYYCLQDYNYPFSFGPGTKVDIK	28.8

(Q) // lookup t½ for H1H14474P (antibody, human IgG1, V domains shown, human IgG1 (H1H)) VH: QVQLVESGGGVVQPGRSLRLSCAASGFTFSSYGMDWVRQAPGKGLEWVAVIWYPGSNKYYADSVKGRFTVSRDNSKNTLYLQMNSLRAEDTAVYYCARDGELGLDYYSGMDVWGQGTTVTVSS VL: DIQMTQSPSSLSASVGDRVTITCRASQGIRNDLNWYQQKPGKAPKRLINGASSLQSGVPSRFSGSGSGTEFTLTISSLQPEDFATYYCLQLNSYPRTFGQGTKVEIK
(A) 89.2
